Each entry below lists one item and its recorded Percent Effect value.
- Species on record: Homo sapiens
- test name: To identify inhibition of the IFN signalling (Jak-Stat) pathway via expression of an eGFP reporter gene under the control of an IFN-stimulated response element (ISRE) containing MxA promoter.
- Assay type: functional
- Design: scale not given: direction of the effect not stated beside the values
- condition details: 30 µM
Respond with the bare value in %.

Reference set, count: 8
Request: Given the molecule c1ccc(-c2nnc(CNCCn3cccn3)o2)cc1 , what is its reported Percent Effect?
Result: -4.79

Request: Next record, please: Cc1ncsc1CCC(=O)NCc1cc2n(n1)CCN(C(=O)N(C)C)C2
Result: 6.29

Request: Next record, please: Cc1cnn(CC2CCCN2C(=O)c2cn(-c3ccccc3)nc2C)c1 (stereo unspecified)
Result: -0.766

Request: Next record, please: Cc1nccn1C1CCCN(C(=O)c2ccc(N3CCCC3)nn2)C1 (stereo unspecified)
Result: 2.56

Request: Next record, please: Cc1nn(C)c(N(C)C)c1CNCc1cccc(OCCN(C)C)c1
Result: 23.3

Request: Next record, please: COc1ccc(CNCc2ccnc(N3CCOCC3)c2)c(OC)c1
Result: 28.2

Request: Next record, please: Cn1ccnc1CN1CCN(CC(=O)NCC(F)(F)F)CC1
Result: 11.1

Request: Next record, please: CCc1nc(CN2CCCC(N(C)Cc3cnc(C)s3)C2)no1 (stereo unspecified)
Result: -15.8

Further cases:
Request: Given the molecule CCS(=O)(=O)N(C)c1ccc(C(=O)N2CCCC(C)C2)cc1 (stereo unspecified) , what is its reported Percent Effect?
Result: 4.06

Request: Next record, please: CS(=O)(=O)N1CCCC12CCCN(S(=O)(=O)c1cc(F)cc(F)c1)C2 (stereo unspecified)
Result: 14.4

Request: Next record, please: O=S(=O)(C1CC1)N1CC[C@]2(C[C@@H](Oc3ccccn3)CO2)C1
Result: 11.7
